The values you see were collected from patent US20220098319A1.

Molecular target: T1, human CD73 (full length, on transfected CHOK1 cells) (human, UniProt P21589 27-549)
T1 construct: whole, on cells; The same id is used for CD73 on human CD4+ T cells in the proliferation assays; also called CHOK1-hCD73; hCD73
T1 sequence (looked up): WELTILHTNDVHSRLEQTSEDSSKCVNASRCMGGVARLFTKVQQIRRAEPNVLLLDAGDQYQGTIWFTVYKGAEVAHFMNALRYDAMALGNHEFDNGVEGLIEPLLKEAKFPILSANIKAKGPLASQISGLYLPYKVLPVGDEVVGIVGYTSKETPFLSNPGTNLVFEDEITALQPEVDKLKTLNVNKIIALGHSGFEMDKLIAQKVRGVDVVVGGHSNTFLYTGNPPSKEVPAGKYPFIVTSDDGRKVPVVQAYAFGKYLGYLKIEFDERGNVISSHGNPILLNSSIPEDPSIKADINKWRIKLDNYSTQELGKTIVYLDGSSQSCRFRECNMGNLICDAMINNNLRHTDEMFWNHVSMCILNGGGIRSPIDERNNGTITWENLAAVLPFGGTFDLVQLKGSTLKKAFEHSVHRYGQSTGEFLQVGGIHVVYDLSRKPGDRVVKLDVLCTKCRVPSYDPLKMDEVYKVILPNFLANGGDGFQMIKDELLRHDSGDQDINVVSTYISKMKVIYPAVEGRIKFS
Assay: FACS on CHOK1-hCD73 cells
Measured MAX MFI fold by item
Your answer is read as fold, so omit the unit and give the number.

Record excerpt, results attached:
{"binder": "mab034xhIgG1TM (clone 60G1C8), mouse-human chimeric anti-CD73 antibody (antibody, V domains shown, also called mAb034 chimeric antibody) VH: DVQLQESGPGLVKPSQSLSLTCSVTGYSITSRYYWNWIRQFPGNKLEWMGYMTYDGTNNYNPSLTNRISITRDTSKNQFFLKLNSVTAEDTATYFCARGGWDPFDYWGQGTTLTVSS VL: DIQMTQSPAALSASVGETVTITCRASDNIYSYLAWYQQKQGKCPQLLVKNAKTLAEGVPSRFSGSGSGTQFSLRINSLQPDDFGTYYCQHYYGTPLTFGAGTKLELK", "measured-endpoint": "MAX MFI fold", "reported": 154}
{"binder": "mab041xhIgG1TM (clone 71E10B3), mouse-human chimeric anti-CD73 antibody (antibody, V domains shown, also called mAb041 chimeric antibody) VH: QVQLQQPGTELVKPGASVKLSCKASGYTFTSYWMHWVKQRPGQGLEWIGNINPSNGGTNYNQKFKSKATLTVDKSSNTASMQLSSLTSEDSAVYYCARGDYGYDWYLDVWGTGTTVTVSS VL: DIVLTQSPASLAVSLGQRAIISCKASQSVSFAGPSLMHWYQQKPGQQPKLLIYRTSNLEAGVPTRFSGSGSGTDFTLNIHPVEEDDAATYYCQQNREFPWTFGGGTKLEIK", "measured-endpoint": "MAX MFI fold", "reported": 127}
{"binder": "mab036xhIgG1TM (clone 66H6C12), mouse-human chimeric anti-CD73 antibody (antibody, V domains shown, also called mAb036 chimeric antibody) VH: QVQLQQSGAEVVKPGASVKISCKASGYVFSSYWINWVKQRPGKGLEWIGKIFPGNGDTDYNGNFKGKATLTADKSSSTAYMQLSSLTSEDSAVYFCAGFADWGQGTLVTVSA VL: DIQMTQSPSSLSASLGERVSLTCRASQDIGERLIWLQQEPDGTFKRLIYATSSLDSGVPKRFSGSSSGSDYSLTISRLESEDFVDYYCLQYASSPYTFGGGTKLEIK", "measured-endpoint": "MAX MFI fold", "reported": 125}
{"binder": "mab032xhIgG1TM (clone 56F12H8), mouse-human chimeric anti-CD73 antibody (antibody, V domains shown, also called mAb032 chimeric antibody) VH: EVQLVESGGDLVKPGGSLKLSCAASGFTFSTHGMSWVRQTPDKRLEWVAIISSDRSDIDYTDNVKGRFTISRDNGKNTLYLQMSSLKSEDTAIYHCARHRGYDGFYYAMDYWGQGTSVTVSS VL: DILMTQSPSSLTVTAGEKVTMSCRSSQSLLNSGNQKNYLTWYQQRPGRPPKLLIYWASTRISGVPDRFAGSGSGTDFTLTISIVQAEDLAVYYCQNDYSYPLTFGSGTKLELR", "measured-endpoint": "MAX MFI fold", "reported": 130}
{"binder": "mab030xhIgG1TM (clone 42A5A7), mouse-human chimeric anti-CD73 antibody (antibody, V domains shown, also called mAb030 chimeric antibody) VH: DIQLQESGPGLVKPSQSLSLTCSVTGYSITSRYYWNWIRQFPGNKLEWMGYITYDDNNNYNPSLKNRISITRDTSKNQFFLKLNSVTPEDTATYYCARGGWDPFLYWGQGTLVTVSA VL: DIQMTQSPASLSASVGETVTITCRASDNIYSYLAWYQQKQGKSLQLLVDSAKNLGEGVPSRFSGSGSGTQFYLKINSLQPEDFGVYYCQHYYGTPFTFGGGTKLELK", "measured-endpoint": "MAX MFI fold", "reported": 114}

Input mab038xhIgG1TM (clone 69C9E12), mouse-human chimeric anti-CD73 antibody (antibody, V domains shown, also called mAb038 chimeric antibody) VH: QVQLQQPGTELVNPGASVKLSCKASGYTFTSYWMHWVKQRPGQGLEWIGNINPSNGGTHYNEKFNNKATLTVDKSSSTAYMQLSSLTSEDSAVFYCARGDYAYDWYFTVWGTGTTVTVSS VL: DIVLTQSPASLAVSLGQRAIISCKASQSVSFAGTGLMHWYQQKPGQQPKLLIYRVSNLEAGIPTRFSGSGSRTDFTLNIHPVEEDDAATYYCQQNREFPWTFGGGTKLEIK , output reported MAX MFI fold.
120

Give MAX MFI fold for mab042xhIgG1TM (clone 77B9A3), mouse-human chimeric anti-CD73 antibody (antibody, V domains shown, also called mAb042 chimeric antibody) VH: QVQLQQSGAGLVKPGASVKLSCKASGYTFTNYWMHWVKQRPGQGLEWIGMIHPNSGSTNNNEKFKNKATLTVDKSSNTAYMQLSSLTSEDSAVYYCARFFFGGYPHYYALDYWGQGTSVTVSS VL: DIVMTQSQKFMSTTVGDRVSITCKASQNVGTAVAWYQQKPGQSPKLLIYSASDRYTGVPDRLTGSGSGTDFTLTISNVQSEDLADYFCQQYSSFPLFTFGSGTKLVIQ
136

Retrieve MAX MFI fold measured for mab020xhIgG1TM (clone 24D6B4), mouse-human chimeric anti-CD73 antibody (antibody, V domains shown, also called mAb020 chimeric antibody) VH: EVQLQQSGPELVKPGASVKIPCKASGYTFTDYNMDWVKQRHGKSLEWIGDINPNNGGTVYNQKFKGKATLTVDKSSNTAYMELRSLTSEDTAVYYCARISGTGYWYFDVWGTGTTVTVSS VL: DIQMTQSPASLSVSVGETVTITCRASENIYSNLAWYQQKQGKSPQLLVYGATNLADGVPSRFSGSDSGTQYSLKINSLQSEDFGSYYCQHFWGTPWTFGGGTKLEIK and print it.
126

Write down MAX MFI fold measured for item mab065xhIgG1TM (clone 125A4E10), mouse-human chimeric anti-CD73 antibody (antibody, V domains shown, also called mAb065 chimeric antibody) VH: EVQLQQSGPELVKPGASVKISCKASGYTFTDYYMNWVKQSHGKSLEWIGNINPNNGDTNYNQKFKGKATLTVDKSSSTASMELRSLTSEDSAVYYCANSGYYYFDYWGQGTTLTVSS VL: DIVMTQSPSSLTVTAGEKVTMSCKSSQSLLNSGNQKNYLTWYQQKPGQPPKVLIYWASTRESGVPDRFTGSGSGTDFTLTISSVQAEDLAVYYCQNDYSYPPTFGGGTNLEIK
160
